Assay: Plasma pharmacokinetics of LXI-15029 (LC-MS/MS, non-compartmental analysis)
Assay type: in vivo, human
Conditions: human, plasma, oral, 20 mg, single dose, cycle 1 day 1; 20 mg BID (n = 3); median (min, max); read-out: Tmax
valueKind: Tmax (h)
The reply should be a number in h, with the unit left off.

Req: Report Tmax for `CNC(=O)c1cccc(-c2ccc3c(N4C5CCC4COC5)nc(N4CCOC[C@@H]4C)nc3n2)c1` please.
Resp: 1

====

Assay: Plasma pharmacokinetics of LXI-15029 (LC-MS/MS, non-compartmental analysis)
Assay type: in vivo, human
Settings: human, plasma, oral; single dose, cycle 1 day 1; 60 mg BID (n = 4); geometric mean (coefficient of variation)
valueKind: AUC(0-inf) (ng·h/mL)
The reply should be a number in ng·h/mL, with the unit left off.

Req: Report AUC(0-inf) for `CNC(=O)c1cccc(-c2ccc3c(N4C5CCC4COC5)nc(N4CCOC[C@@H]4C)nc3n2)c1` please.
Resp: 3750

====

Assay: Plasma pharmacokinetics of LXI-15029 (LC-MS/MS, non-compartmental analysis)
Format: in vivo, human
Settings: human, plasma, oral; multiple dose, cycle 1 day 28; 10 mg BID (n = 3); geometric mean (coefficient of variation)
valueKind: Cmax at 28 day
Answer with the number, then the unit.

Req: Report Cmax at 28 day for `CNC(=O)c1cccc(-c2ccc3c(N4C5CCC4COC5)nc(N4CCOC[C@@H]4C)nc3n2)c1` please.
Resp: 115 ng/mL

====

Assay: Plasma pharmacokinetics of LXI-15029 (LC-MS/MS, non-compartmental analysis)
Assay type: in vivo, human
Details: human, plasma, oral; single dose, cycle 1 day 1; 80 mg BID (n = 4); geometric mean (coefficient of variation)
valueKind: AUC(0-inf)

Req: Report AUC(0-inf) for `CNC(=O)c1cccc(-c2ccc3c(N4C5CCC4COC5)nc(N4CCOC[C@@H]4C)nc3n2)c1` please.
Resp: 1870 ng·h/mL

====

Assay: Plasma pharmacokinetics of LXI-15029 (LC-MS/MS, non-compartmental analysis)
Assay type: in vivo, human
Conditions: human, plasma, oral, 150 mg BID, multiple dose, cycle 1 day 28; 150 mg BID (n = 4); geometric mean (coefficient of variation); read-out: Cav ss
valueKind: concentration at 28 day (ng/mL)
The reply should be a number in ng/mL, with the unit left off.

Req: Report concentration at 28 day for `CNC(=O)c1cccc(-c2ccc3c(N4C5CCC4COC5)nc(N4CCOC[C@@H]4C)nc3n2)c1` please.
Resp: 2120

====

Assay: Plasma pharmacokinetics of LXI-15029 (LC-MS/MS, non-compartmental analysis)
Assay type: in vivo, human
Conditions: human, plasma, oral; single dose, cycle 1 day 1; 20 mg BID (n = 3); geometric mean (coefficient of variation)
valueKind: AUC(0-inf) (ng·h/mL)
The reply should be a number in ng·h/mL, with the unit left off.

Req: Report AUC(0-inf) for `CNC(=O)c1cccc(-c2ccc3c(N4C5CCC4COC5)nc(N4CCOC[C@@H]4C)nc3n2)c1` please.
Resp: 898

====

Assay: Plasma pharmacokinetics of LXI-15029 (LC-MS/MS, non-compartmental analysis)
Format: in vivo, human
Details: human, plasma, oral, 40 mg, single dose, cycle 1 day 1; 40 mg BID (n = 3); median (min, max); read-out: Tmax
valueKind: Tmax (min)
The reply should be a number in min, with the unit left off.

Req: Report Tmax for `CNC(=O)c1cccc(-c2ccc3c(N4C5CCC4COC5)nc(N4CCOC[C@@H]4C)nc3n2)c1` please.
Resp: 40.8

====

Assay: Plasma pharmacokinetics of LXI-15029 (LC-MS/MS, non-compartmental analysis)
Assay type: in vivo, human
Settings: human, plasma, oral; single dose, cycle 1 day 1; 110 mg BID (n = 3); geometric mean (coefficient of variation)
valueKind: AUC(0-inf) (ng·h/mL)
The reply should be a number in ng·h/mL, with the unit left off.

Req: Report AUC(0-inf) for `CNC(=O)c1cccc(-c2ccc3c(N4C5CCC4COC5)nc(N4CCOC[C@@H]4C)nc3n2)c1` please.
Resp: 5340

====

Test: Plasma pharmacokinetics of LXI-15029 (LC-MS/MS, non-compartmental analysis)
Assay type: in vivo, human
Conditions: human, plasma, oral; multiple dose, cycle 1 day 28; 40 mg BID (n = 3); geometric mean (coefficient of variation)
valueKind: AUC
Answer with the number, then the unit.

Req: Report AUC for CNC(=O)c1cccc(-c2ccc3c(N4C5CCC4COC5)nc(N4CCOC[C@@H]4C)nc3n2)c1 [LXI-15029] please.
Resp: 1670 ng·h/mL

====

Test: Plasma pharmacokinetics of LXI-15029 (LC-MS/MS, non-compartmental analysis)
Assay type: in vivo, human
Details: human, plasma, oral; single dose, cycle 1 day 1; 150 mg BID (n = 4); geometric mean (coefficient of variation)
valueKind: Cmax
Answer with the number, then the unit.

Req: Report Cmax for CNC(=O)c1cccc(-c2ccc3c(N4C5CCC4COC5)nc(N4CCOC[C@@H]4C)nc3n2)c1 [LXI-15029] please.
Resp: 4.14 µg/mL

====

Experiment: Plasma pharmacokinetics of LXI-15029 (LC-MS/MS, non-compartmental analysis)
Assay type: in vivo, human
Details: human, plasma, oral, 10 mg, single dose, cycle 1 day 1; 10 mg BID (n = 3); median (min, max); read-out: Tmax
valueKind: Tmax (min)
The reply should be a number in min, with the unit left off.

Req: Report Tmax for `CNC(=O)c1cccc(-c2ccc3c(N4C5CCC4COC5)nc(N4CCOC[C@@H]4C)nc3n2)c1` please.
Resp: 58.8

====

Test: Plasma pharmacokinetics of LXI-15029 (LC-MS/MS, non-compartmental analysis)
Assay type: in vivo, human
Details: human, plasma, oral, 150 mg BID, multiple dose, cycle 1 day 28; 150 mg BID (n = 4); geometric mean (coefficient of variation); read-out: Cmin ss
valueKind: concentration at 28 day

Req: Report concentration at 28 day for `CNC(=O)c1cccc(-c2ccc3c(N4C5CCC4COC5)nc(N4CCOC[C@@H]4C)nc3n2)c1` please.
Resp: 452 ng/mL

====

Experiment: Plasma pharmacokinetics of LXI-15029 (LC-MS/MS, non-compartmental analysis)
Format: in vivo, human
Conditions: human, plasma, oral, 80 mg BID, multiple dose, cycle 1 day 28; 80 mg BID (n = 4); geometric mean (coefficient of variation); read-out: Cav ss
Protocol: Blood samples for PK analysis of LXI-15029 were collected on day 1 (pre-dose, 20 min, 40 min, 1 h, 1.5 h, 2 h, 3 h, 4 h, 6 h, 8 h, 12 h, 24 h, and 48 h), cycle 1 day 8 (pre-dose), cycle 1 day 15 (pre-dose), and cycle 1 day 28 (pre-dose, 20 min, 40 min, 1 h, 1.5 h, 2 h, 3 h, 4 h, 6 h, 8 h, and 12 h). The blood samples were stored at -70°C until testing. The concentration of LXI-15029 in plasma was measured using the validated liquid chromatography-tandem mass spectrometry (LC–MS/MS) method. […]
valueKind: concentration at 28 day (ng/mL)
The reply should be a number in ng/mL, with the unit left off.

Req: Report concentration at 28 day for CNC(=O)c1cccc(-c2ccc3c(N4C5CCC4COC5)nc(N4CCOC[C@@H]4C)nc3n2)c1 [LXI-15029] please.
Resp: 435

====

Test: Plasma pharmacokinetics of LXI-15029 (LC-MS/MS, non-compartmental analysis)
Assay type: in vivo, human
Settings: human, plasma, oral, 60 mg, single dose, cycle 1 day 1; 60 mg BID (n = 4); arithmetic mean ± standard deviation; read-out: t1/2 (converted)
valueKind: half-life (h)
The reply should be a number in h, with the unit left off.

Req: Report half-life for `CNC(=O)c1cccc(-c2ccc3c(N4C5CCC4COC5)nc(N4CCOC[C@@H]4C)nc3n2)c1` please.
Resp: 2

====

Assay: Plasma pharmacokinetics of LXI-15029 (LC-MS/MS, non-compartmental analysis)
Type: in vivo, human
Conditions: human, plasma, oral, 80 mg, multiple dose, cycle 1 day 28; 80 mg BID (n = 4); median (min, max)
valueKind: Tmax at 28 day (h)
The reply should be a number in h, with the unit left off.

Req: Report Tmax at 28 day for `CNC(=O)c1cccc(-c2ccc3c(N4C5CCC4COC5)nc(N4CCOC[C@@H]4C)nc3n2)c1` please.
Resp: 1.08

====

Assay: Plasma pharmacokinetics of LXI-15029 (LC-MS/MS, non-compartmental analysis)
Assay type: in vivo, human
Details: human, plasma, oral, 40 mg, multiple dose, cycle 1 day 28; 40 mg BID (n = 3); median (min, max)
valueKind: Tmax at 28 day (min)
The reply should be a number in min, with the unit left off.

Req: Report Tmax at 28 day for `CNC(=O)c1cccc(-c2ccc3c(N4C5CCC4COC5)nc(N4CCOC[C@@H]4C)nc3n2)c1` please.
Resp: 40.2
